MEASUREMENT_TARGET: human adenosine 1 receptor (Homo sapiens)
Construct: expressed in transfected cells; host or cells: Chinese hamster ovary (CHO) cells, also transfected with a CRE-SPAP reporter
Sequence (P30542 whole entry): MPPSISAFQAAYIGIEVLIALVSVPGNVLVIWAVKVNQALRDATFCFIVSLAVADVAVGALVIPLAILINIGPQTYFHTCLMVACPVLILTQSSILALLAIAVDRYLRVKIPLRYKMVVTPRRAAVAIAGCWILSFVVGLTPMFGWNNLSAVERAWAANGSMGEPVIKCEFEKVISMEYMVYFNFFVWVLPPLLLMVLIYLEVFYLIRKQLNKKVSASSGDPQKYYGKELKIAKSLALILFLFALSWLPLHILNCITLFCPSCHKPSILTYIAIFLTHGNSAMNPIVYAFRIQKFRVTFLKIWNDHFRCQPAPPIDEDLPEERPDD
PROTOCOL_NOTES: Agonist activity at adenosine 1 receptor, CHO cells with CRE-SPAP reporter (forskolin-enhanced cAMP)
Format: cell-based
CONDITION_PARAMETERS: CHO cells transfected with human A1 receptor; effect on forskolin-enhanced cAMP via SPAP; ratio to NECA; minimum values (about 20% inactive impurity)
Procedure: (1) Agonist activity against adenosine 2a, adenosine 1 and adenosine 3 receptor subtypes. Agonist selectivity of compounds against other human adenosine receptors is determined using Chinese hamster ovary (CHO) cells transfected with the gene for the relevant human adenosine receptor following a method based on that of Castanon and Spevak, 1994. […] EC50 values for compounds are then determined as a ratio to that of the non-selective agonist N-ethyl carboxamide adenosine (NECA).
For each record, check the reported A1 EC50 as a ratio of that of NECA: if it is below 400 write yes (1), else write no (0).

COMPOUND	CATEGORY
OCCCn1nnc(C2OC(n3cnc4c(NCC(c5ccccc5)c5ccccc5)nc(NCCN5CCCCC5)nc43)C(O)C2O)n1 (centres unmarked) [Example 1]	no (0)
O=C(O)C(F)(F)F.O=C(O)C(F)(F)F.O[C@@H]1[C@H](O)[C@@H](c2nnn(CC3CC3)n2)O[C@H]1n1cnc2c(NCC(c3ccccc3)c3ccccc3)nc(NCCN3CCCCC3)nc21 [Example 4]	no (0)
CCCn1nnc(C2OC(n3cnc4c(NCC(c5ccccc5)c5ccccc5)nc(NCCN5CCCCC5)nc43)C(O)C2O)n1 (centres unmarked) [Example 2]	no (0)
OCCn1nnc(C2OC(n3cnc4c(NCC(c5ccccc5)c5ccccc5)nc(NCCN5CCCCC5)nc43)C(O)C2O)n1 (centres unmarked) [Example 5]	yes (1)
C=CCn1nnc(C2OC(n3cnc4c(NCC(c5ccccc5)c5ccccc5)nc(NCCN5CCCCC5)nc43)C(O)C2O)n1 (centres unmarked) [Example 8]	no (0)
O=C(O)C(F)(F)F.O=C(O)C(F)(F)F.O[C@@H]1[C@H](O)[C@@H](c2nnn(C3CCC3)n2)O[C@H]1n1cnc2c(NCC(c3ccccc3)c3ccccc3)nc(NCCN3CCCCC3)nc21 [Example 7]	no (0)
CC(=O)OCCn1nnc(C2OC(n3cnc4c(NCC(c5ccccc5)c5ccccc5)nc(NCCN5CCCCC5)nc43)C(O)C2O)n1 (centres unmarked) [Example 3]	yes (1)

* * *

MEASUREMENT_TARGET: human adenosine 2a receptor (Homo sapiens, UniProt P29274)
Construct: expressed in transfected cells; host or cells: Chinese hamster ovary (CHO) cells, also transfected with a CRE-SPAP reporter
Sequence (P29274 whole entry): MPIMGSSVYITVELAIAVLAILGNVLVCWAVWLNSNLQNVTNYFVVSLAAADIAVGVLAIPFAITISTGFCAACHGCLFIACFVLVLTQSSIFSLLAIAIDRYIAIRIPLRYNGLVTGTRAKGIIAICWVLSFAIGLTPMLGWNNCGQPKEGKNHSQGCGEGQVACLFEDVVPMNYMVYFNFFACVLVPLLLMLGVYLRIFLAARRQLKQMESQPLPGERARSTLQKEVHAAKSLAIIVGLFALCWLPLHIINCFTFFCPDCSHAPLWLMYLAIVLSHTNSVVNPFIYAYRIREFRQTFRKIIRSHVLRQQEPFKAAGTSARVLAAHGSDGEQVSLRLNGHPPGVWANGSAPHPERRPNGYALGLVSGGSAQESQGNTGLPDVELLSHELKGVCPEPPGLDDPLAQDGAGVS
PROTOCOL_NOTES: Agonist activity at adenosine 2a receptor, CHO cells with CRE-SPAP reporter (basal cAMP)
Type: cell-based
CONDITION_PARAMETERS: CHO cells transfected with human A2a receptor; effect on basal cAMP via SPAP; ratio to NECA; minimum values (about 20% inactive impurity)
Response key: T means A2a EC50 as a ratio of that of NECA >= 20; F means A2a EC50 as a ratio of that of NECA < 20.

COMPOUND	MEASUREMENT_TARGET	CATEGORY
OCCn1nnc(C2OC(n3cnc4c(NCC(c5ccccc5)c5ccccc5)nc(NCCN5CCCCC5)nc43)C(O)C2O)n1 (centres unmarked) [Example 5]	human adenosine 2a receptor (Homo sapiens, UniProt P29274)	F
O=C(O)C(F)(F)F.O=C(O)C(F)(F)F.O[C@@H]1[C@H](O)[C@@H](c2nnn(CCCl)n2)O[C@H]1n1cnc2c(NCC(c3ccccc3)c3ccccc3)nc(NCCN3CCCCC3)nc21 [Example 6]	human adenosine 2a receptor (Homo sapiens, UniProt P29274)	T
CC(=O)OCCn1nnc(C2OC(n3cnc4c(NCC(c5ccccc5)c5ccccc5)nc(NCCN5CCCCC5)nc43)C(O)C2O)n1 (centres unmarked) [Example 3]	human adenosine 2a receptor (Homo sapiens, UniProt P29274)	F
OCCCn1nnc(C2OC(n3cnc4c(NCC(c5ccccc5)c5ccccc5)nc(NCCN5CCCCC5)nc43)C(O)C2O)n1 (centres unmarked) [Example 1]	human adenosine 2a receptor (Homo sapiens, UniProt P29274)	T
C=CCn1nnc(C2OC(n3cnc4c(NCC(c5ccccc5)c5ccccc5)nc(NCCN5CCCCC5)nc43)C(O)C2O)n1 (centres unmarked) [Example 8]	human adenosine 2a receptor (Homo sapiens, UniProt P29274)	T
O=C(O)C(F)(F)F.O=C(O)C(F)(F)F.O[C@@H]1[C@H](O)[C@@H](c2nnn(CC3CC3)n2)O[C@H]1n1cnc2c(NCC(c3ccccc3)c3ccccc3)nc(NCCN3CCCCC3)nc21 [Example 4]	human adenosine 2a receptor (Homo sapiens, UniProt P29274)	T
CCCn1nnc(C2OC(n3cnc4c(NCC(c5ccccc5)c5ccccc5)nc(NCCN5CCCCC5)nc43)C(O)C2O)n1 (centres unmarked) [Example 2]	human adenosine 2a receptor (Homo sapiens, UniProt P29274)	T
O=C(O)C(F)(F)F.O=C(O)C(F)(F)F.O[C@@H]1[C@H](O)[C@@H](c2nnn(C3CCC3)n2)O[C@H]1n1cnc2c(NCC(c3ccccc3)c3ccccc3)nc(NCCN3CCCCC3)nc21 [Example 7]	human adenosine 2a receptor (Homo sapiens, UniProt P29274)	T
